System: MKL-2 cells (VP-MCC)
Method Notes: qHTS cell viability (CellTiter-Glo, 72 h; primary and follow-up small molecule screen)
Assay type: cell-based, human
Assay Conditions: MKL2, 72h, Log (M) -9.63055
Documented Percent viability across a set of compounds
// return numeric value only (unit: %, not printed)

Percent viability in this record for CCn1cc(-c2ccnc3[nH]c(-c4cccc(CN(C)C)c4)cc23)c(-c2ccc(NC(=O)N(C)C)cc2)n1 [GSK-1070916A, reference compound] : 107.1

---
Percent viability in this record for CCS(=O)(=O)c1cccc(-c2cc(C(=O)NC3CCN(C)CC3)c(C)c3[nH]c4ncc(C)cc4c23)c1 [TAK-901, reference compound] : 106.9

Percent viability in this record for Cc1cc(Nc2cc(N3CCN(C)CC3)nc(Sc3ccc(NC(=O)C4CC4)cc3)n2)[nH]n1 [Tozasertib, reference compound] : 110.0

Percent viability in this record for O=C(Nc1cccc(Cl)c1)Nc1ncc(CCNc2ncnc3ccsc23)s1 [SNS-314, reference compound] : 104.9
